Numbers sourced from patent US20250235545A1.

I'd appreciate it if you could supply IC50 SKBR3 (breast cancer tissue) values for the items below.
Tested on: SKBR3 (breast cancer tissue)
assay-details: cells
Assay type: cell-based
measurement-setup: CCK8, 48 h; Table 1
Where a SMILES comes first, the peptide text is derived from it. The star is where a group is joined. X8 = CC[C@@]1(O)C(=O)OCc2c1cc1n(c2=O)Cc2c-1nc1ccccc1c2CCN(C1CCCC1)*; X1 = CC[C@@]1(O)C(=O)OCc2c1cc1n(c2=O)Cc2c-1nc1ccccc1c2CCN(C1CCC1)*; Propanoyl(3-maleimido) = O=C1C=CC(=O)N1CCC(=O)*; PEG6 = NCCOCCOCCOCCOCCOCCOCCC(=O)O
# unit: µg/mL | format: bare number

Which measured IC50 SKBR3 (breast cancer tissue) belongs to `CC[C@@]1(O)C(=O)OCc2c1cc1n(c2=O)Cc2c-1nc1ccccc1c2CCNCC(C)C` , tested on SKBR3 (breast cancer tissue)?
0.013

Which measured IC50 SKBR3 (breast cancer tissue) belongs to CC[C@@]1(O)C(=O)OCc2c1cc1n(c2=O)Cc2c-1nc1ccccc1c2CCN(C(=O)CNC(=O)[C@H](CC(N)=O)NC(=O)[C@H](C)NC(=O)[C@H](C)NC(=O)CCOCCOCCOCCOCCOCCOCCNC(=O)CCN1C(=O)C=CC1=O)C1CCC1 [MI-6PEG-AANG-D7] ({Propanoyl(3-maleimido)-PEG6}-AANG-X1) , tested on SKBR3 (breast cancer tissue)?
2.64

Which measured IC50 SKBR3 (breast cancer tissue) belongs to `CC[C@@]1(O)C(=O)OCc2c1cc1n(c2=O)Cc2c-1nc1ccccc1c2CCNC1CCCC1` , tested on SKBR3 (breast cancer tissue)?
0.047

Which measured IC50 SKBR3 (breast cancer tissue) belongs to `CCCCNCCc1c2c(nc3ccccc13)-c1cc3c(c(=O)n1C2)COC(=O)[C@]3(O)CC` , tested on SKBR3 (breast cancer tissue)?
0.076

Which measured IC50 SKBR3 (breast cancer tissue) belongs to CC[C@@]1(O)C(=O)OCc2c1cc1n(c2=O)Cc2c-1nc1ccccc1c2CCN(C(=O)CNC(=O)[C@H](CC(N)=O)NC(=O)[C@H](C)NC(=O)[C@H](C)NC(=O)CCOCCOCCOCCOCCOCCOCCNC(=O)CCN1C(=O)C=CC1=O)C1CCCC1 [MI-6PEG-AANG-D8] ({Propanoyl(3-maleimido)-PEG6}-AANG-X8) , tested on SKBR3 (breast cancer tissue)?
2.55

###

I'd appreciate it if you could supply Mouse weight (%) on Day 14 values for the items below.
Tested on: sarcoma SJSA-1 tumor model
assay-details: Efficacy in animal model of sarcoma SJSA-1, 30 mg/kg once a week for two weeks (Example 40)
Type: in vivo, BALB/c mice
measurement-setup: 30 mg/kg once a week for two weeks; Day 14
Where a SMILES comes first, the peptide text is derived from it. The star is where a group is joined. NEt(2-(20S-CPT-7-yl)ethyl) = CCN(CCc1c2c(nc3ccccc13)-c1cc3c(c(=O)n1C2)COC(=O)[C@]3(O)CC)*; X6 = CCCCCN(CCc1c2c(nc3ccccc13)-c1cc3c(c(=O)n1C2)COC(=O)[C@]3(O)CC)*; X1 = CC[C@@]1(O)C(=O)OCc2c1cc1n(c2=O)Cc2c-1nc1ccccc1c2CCN(C1CCC1)*; X4 = CCCN(CCc1c2c(nc3ccccc13)-c1cc3c(c(=O)n1C2)COC(=O)[C@]3(O)CC)*; Propanoyl(3-maleimido) = O=C1C=CC(=O)N1CCC(=O)*; PEG6 = NCCOCCOCCOCCOCCOCCOCCC(=O)O

Report Mouse weight (%) on Day 14 for CCCN(CCc1c2c(nc3ccccc13)-c1cc3c(c(=O)n1C2)COC(=O)[C@]3(O)CC)C(=O)[C@H](CC(C)C)NC(=O)[C@H](CC(N)=O)NC(=O)[C@H](C)NC(=O)[C@H](C)NC(=O)CCOCCOCCOCCOCCOCCOCCNC(=O)CCN1C(=O)C=CC1=O [MI-6PEG-AANL-D3] ({Propanoyl(3-maleimido)-PEG6}-AANL-X4) please.
+4.2%

Report Mouse weight (%) on Day 14 for CCCN(CCc1c2c(nc3ccccc13)-c1cc3c(c(=O)n1C2)COC(=O)[C@]3(O)CC)C(=O)CNC(=O)[C@H](CC(N)=O)NC(=O)[C@H](C)NC(=O)[C@H](C)NC(=O)CCOCCOCCOCCOCCOCCOCCNC(=O)CCN1C(=O)C=CC1=O [MI-6PEG-AANG-D3] ({Propanoyl(3-maleimido)-PEG6}-AANG-X4) please.
+3.6%

Report Mouse weight (%) on Day 14 for CCCCCN(CCc1c2c(nc3ccccc13)-c1cc3c(c(=O)n1C2)COC(=O)[C@]3(O)CC)C(=O)CNC(=O)[C@H](CC(N)=O)NC(=O)[C@H](C)NC(=O)[C@H](C)NC(=O)CCOCCOCCOCCOCCOCCOCCNC(=O)CCN1C(=O)C=CC1=O [MI-6PEG-AANG-D4] ({Propanoyl(3-maleimido)-PEG6}-AANG-X6) please.
+4.1%

Report Mouse weight (%) on Day 14 for CC[C@@]1(O)C(=O)OCc2c1cc1n(c2=O)Cc2c-1nc1ccccc1c2CCN(C(=O)CNC(=O)[C@H](CC(N)=O)NC(=O)[C@H](C)NC(=O)[C@H](C)NC(=O)CCOCCOCCOCCOCCOCCOCCNC(=O)CCN1C(=O)C=CC1=O)C1CCC1 [MI-6PEG-AANG-D7] ({Propanoyl(3-maleimido)-PEG6}-AANG-X1) please.
+1.6%

Report Mouse weight (%) on Day 14 for CC[C@@]1(O)C(=O)OCc2c1cc1n(c2=O)Cc2c-1nc1ccccc1c2CCN(C(=O)[C@H](CC(C)C)NC(=O)[C@H](CC(N)=O)NC(=O)[C@H](C)NC(=O)[C@H](C)NC(=O)CCOCCOCCOCCOCCOCCOCCNC(=O)CCN1C(=O)C=CC1=O)C1CCC1 [MI-6PEG-AANL-D7] ({Propanoyl(3-maleimido)-PEG6}-AANL-X1) please.
−3.3%

Report Mouse weight (%) on Day 14 for CCN(CCc1c2c(nc3ccccc13)-c1cc3c(c(=O)n1C2)COC(=O)[C@]3(O)CC)C(=O)[C@H](CC(C)C)NC(=O)[C@H](CC(N)=O)NC(=O)[C@H](C)NC(=O)[C@H](C)NC(=O)CCOCCOCCOCCOCCOCCOCCNC(=O)CCN1C(=O)C=CC1=O [MI-6PEG-AANL-D2] ({Propanoyl(3-maleimido)-PEG6}-AANL-{NEt(2-(20S-CPT-7-yl)ethyl)}) please.
+1.9%
